Value source: patent US10774071B2

molecular target: PD-L1 (Homo sapiens (Human)); assay: PD-L1/PD-L1 dimerization biochemical protein-protein interaction assay (ALPHA); format: binding; conditions: 0.5 nM His tagged PD-L1 and 0.5 nM FLAG tagged PD-L1, Table 4B, read-out: AC50 PDL1 Dimer 1 nM
Sequence (Q9NZQ7 19-238): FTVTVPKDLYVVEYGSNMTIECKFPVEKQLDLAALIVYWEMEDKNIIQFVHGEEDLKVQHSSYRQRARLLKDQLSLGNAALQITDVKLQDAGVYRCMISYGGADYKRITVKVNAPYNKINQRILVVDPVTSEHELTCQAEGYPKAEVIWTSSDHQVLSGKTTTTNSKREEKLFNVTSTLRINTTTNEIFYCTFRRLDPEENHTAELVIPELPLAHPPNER
Sequence (Q9NZQ7 19-238): as above
// values below are reported AC50

- molecule: "CNC(=O)C1CCN(Cc2cc(Cl)c(O[C@H]3CCc4c(-c5cccc(-c6cnc(CNC[C@@H]7CCC(=O)N7)c(OC)n6)c5Cl)cccc43)nc2OC)C1 (stereo partly drawn) [B-28]"
  readout-units: "nM"
  AC50: 26.9
- molecule: "COc1nc(-c2cccc(-c3cccc4c3CC[C@@H]4Oc3nc(OC)c(CNC[C@@H]4CCC(=O)N4)nc3C)c2Cl)ccc1CNC[C@@H]1CCC(=O)N1 [B-151]"
  readout-units: "nM"
  AC50: 66.2
- molecule: "COc1cc(-c2cccc(-c3cccc4c3CC[C@@H]4Oc3nc(OC)c(CN4CC(C(=O)O)C4)cc3Cl)c2Cl)cc(F)c1CNC[C@@H]1CCC(=O)N1 [B-130]"
  readout-units: "nM"
  AC50: 4.87
- molecule: "CCS(=O)(=O)NC(=O)[C@@H]1CCN(Cc2cc(Cl)c(O[C@H]3CCc4c(-c5cccc(-c6ccc(CNC[C@@H]7CCC(=O)N7)c(OC)n6)c5Cl)cccc43)nc2OC)C1 [B-112]"
  readout-units: "nM"
  AC50: 170
- molecule: "COc1nc(-c2cccc(-c3cccc4c3CC[C@@H]4Oc3nc(OC)c(CN4CCC(C(=O)N=S(C)(N)=O)CC4)cc3Cl)c2Cl)ccc1CNC[C@@H]1CCC(=O)N1 (stereo partly drawn) [B-158]"
  readout-units: "nM"
  AC50: 26.9
- molecule: "COc1nc(-c2cccc(-c3cccc4c3CC[C@@H]4Oc3nc(OC)c(CN4CCC(C)(C(=O)O)CC4)cc3Cl)c2Cl)ccc1CNC[C@@H]1CCC(=O)N1 [B-178]"
  readout-units: "nM"
  AC50: 21.5

* * *

target: PD-L1 (Homo sapiens (Human)); test: PD-L1/PD-L1 dimerization biochemical protein-protein interaction assay (ALPHA); assay type: binding; settings: 0.5 nM His tagged PD-L1 and 0.5 nM FLAG tagged PD-L1, Table 4B, read-out: AC50 PDL1 Dimer 1 nM

- entry-smiles: "COc1nc(-c2cccc(-c3cccc4c3CC[C@@H]4Oc3nc(OC)c(CN4CCC[C@]4(C)C(=O)O)cc3C)c2Cl)ccc1CNC[C@@H]1CCC(=O)N1"
  AC50 (nM): 34.9
- entry-smiles: "CC[C@@](C)(NCc1cc(C(F)(F)F)c(O[C@H]2CCc3c(-c4cccc(-c5ccc(CNC[C@@H]6CCC(=O)N6)c(OC)n5)c4Cl)cccc32)nc1OC)C(=O)O"
  AC50 (nM): 2.42
- entry-smiles: "COc1nc(-c2cccc(-c3cc(F)cc4c3CC[C@@H]4Oc3nc(OC)c(CN4CC5(C(=O)O)CCC4CC5)cc3C(F)(F)F)c2Cl)ccc1CNC[C@@H]1CCC(=O)N1"
  AC50 (nM): 20.1

* * *

molecular target: PD-1/PD-L1 (Homo sapiens (Human), UniProt Q9NZQ7); assay: PD-1/PD-L1 biochemical protein-protein interaction assay (ALPHA); assay type: binding; conditions: 0.3 nM His tagged PD-L1, 2.5 nM biotinylated Fc-PD-1, Table 3B, read-out: IC50 PD-L1-PD1
Sequence (Q9NZQ7 19-238): as above
// values below are reported IC50

- compound: "COc1cc(-c2cccc(-c3cccc4c3CC[C@@H]4Oc3nc(OC)c(CN4CC(C(=O)O)C4)cc3Cl)c2Cl)ccc1CNC[C@@H]1CCC(=O)N1"
  IC50 (pM): 64
- compound: "COc1nc(-c2cccc(-c3cccc4c3CC[C@@H]4Oc3nc(OC)c(CNC4(C(=O)O)CC4)cc3C(F)(F)F)c2Cl)ccc1CN1CC2(C1)CN(C(C)=O)C2"
  IC50 (pM): 64
- compound: "COc1nc(O[C@H]2CCc3c(-c4cccc(-c5cc(C)c(CN6CC[C@@H](C(=O)O)C6)c(OC)n5)c4Cl)cccc32)c(Cl)cc1CNC[C@@H]1CCC(=O)N1"
  IC50 (pM): 64
- compound: "COc1nc(-c2cccc(-c3cccc4c3CC[C@@H]4Oc3nc(OC)c(CN4CC(C)(O)C4)cc3Cl)c2Cl)ccc1CNC[C@@H]1CCC(=O)N1"
  IC50 (pM): 146
- compound: "COc1nc(-c2cccc(-c3cccc4c3CC[C@@H]4Oc3nc(OCc4cncc(Cl)c4)c(CN4CC[C@H](C(=O)O)C4)cc3Cl)c2Cl)ccc1CNC[C@@H]1CCC(=O)N1"
  IC50 (pM): 64
- compound: "COc1nc(-c2cccc(-c3cccc4c3CC[C@@H]4Oc3nc(OC)c(CNCC(C)(C)C(=O)O)cc3C(F)(F)F)c2Cl)ccc1CN[C@H]1C[C@](C)(O)C1"
  IC50 (pM): 64
- compound: "COc1nc(-c2cccc(-c3cccc4c3CC[C@@H]4Oc3nc(OC)c(CN4CC[C@@H](C(=O)N=S(C)(N)=O)C4)cc3Cl)c2Cl)ccc1CNC[C@@H]1CCC(=O)N1 (some centres unmarked)"
  IC50 (pM): 270
- compound: "COc1nc(-c2cccc(-c3cccc4c3CC[C@@H]4Oc3nc(OC)c(CNC4(C(=O)O)CC4)cc3C)c2Cl)ccc1CNC[C@@H]1CCC(=O)N1"
  IC50 (pM): 64
- compound: "COc1nc(-c2cccc(-c3cccc4c3CC[C@@H]4Oc3nc(OCc4cncc(Cl)c4)c(CNC4(C(=O)O)CC4)cc3Cl)c2Cl)ccc1CNC[C@@H]1CCC(=O)N1"
  IC50 (pM): 95
- compound: "COc1nc(-c2cccc(-c3cccc4c3CC[C@@H]4Oc3nc(OC)c(CN(C)CC(=O)O)cc3C(F)(F)F)c2Cl)ccc1CNC[C@@H]1CCC(=O)N1"
  IC50 (pM): 64
- compound: "COc1nc(O[C@H]2CCc3c(-c4cccc(-c5ccc(CNC[C@@H]6CCC(=O)N6)c(Cl)c5)c4Cl)cccc32)c(Cl)cc1CNC1(C(=O)O)CC1"
  IC50 (pM): 64
- compound: "COc1nc(-c2cccc(-c3cccc4c3CC[C@@H]4Oc3nc(OC)c(CN4CCCCC(C(=O)O)C4)cc3Cl)c2Cl)ccc1CNC[C@@H]1CCC(=O)N1 (some centres unmarked)"
  IC50 (pM): 64
- compound: "COC(=O)[C@@H]1CCN(Cc2ncc(O[C@H]3CCc4c(-c5cccc(-c6ccc(CNC[C@@H]7CCC(=O)N7)c(OC)n6)c5Cl)cccc43)nc2OC)C1"
  IC50 (pM): 195
- compound: "COc1nc(-c2cccc(-c3cccc4c3CC[C@@H]4Oc3nc(OC)c(CNC[C@@H]4CCC(=O)N4)nc3Cl)c2Cl)ccc1CNC[C@@H]1CCC(=O)N1"
  IC50 (pM): 220
- compound: "COc1nc(-c2cccc(-c3cccc4c3CC[C@@H]4Oc3nc(OC)c(CN4CCC[C@@]4(C)C(=O)O)cc3C)c2Cl)ccc1CNC[C@@H]1CCC(=O)N1"
  IC50 (pM): 64
- compound: "COc1cc(O[C@H]2CCc3c(-c4cccc(-c5ccc(CNC[C@@H]6CCC(=O)N6)c(OC)n5)c4Cl)cccc32)c(C(F)(F)F)cc1CNCC(C)(C)C(=O)O"
  IC50 (pM): 64
- compound: "COc1nc(-c2cccc(-c3cccc4c3CC[C@@H]4Oc3nc(OC)c(C(C)N4CC(C(=O)O)C4)cc3C(F)(F)F)c2Cl)ccc1CNC[C@@H]1CCC(=O)N1 (some centres unmarked)"
  IC50 (pM): 64
- compound: "COc1nc(O[C@H]2CCc3c(-c4cccc(-c5cc(C)c(CN6CC(C)(O)C6)c(OC)n5)c4Cl)cccc32)c(Cl)cc1CN1CC(C(=O)O)C1"
  IC50 (pM): 113
- compound: "COc1nc(O[C@H]2CCc3c(-c4cccc(-c5cc(C)c(CN6CC(C)(O)C6)c(OC)n5)c4Cl)cccc32)c(Cl)cc1CN1CC2(C(=O)O)CCC1CC2"
  IC50 (pM): 80
- compound: "COc1nc(-c2cccc(-c3cccc4c3CC[C@@H]4Oc3nc(OC)c(CN4C[C@@H]5CCC[C@]5(C(=O)O)C4)cc3Cl)c2Cl)ccc1CN1CC(C)(O)C1"
  IC50 (pM): 64
- compound: "COc1nc(-c2cccc(-c3cccc4c3CC[C@@H]4Oc3nc(OC)c(CN4CC5CCC4C5C(=O)O)cc3Cl)c2Cl)ccc1CNC[C@@H]1CCC(=O)N1 (some centres unmarked)"
  IC50 (pM): 64
- compound: "COc1nc(-c2cccc(-c3cccc4c3CC[C@@H]4Oc3nc(OC)c(CN(C)CC(=O)O)cc3C(F)(F)F)c2Cl)ccc1CN[C@H]1C[C@](C)(O)C1"
  IC50 (pM): 64
- compound: "COc1cc(-c2cccc(-c3cccc4c3CC[C@@H]4Oc3nc(OC)c(CN4CC[C@@H](C(=O)O)C4)cc3Cl)c2Cl)ccc1CNC[C@@H]1CCC(=O)N1"
  IC50 (pM): 64
